- studySystem: UniProtKB P24941
- assayExplanation: CDK2 inhibition (IC50)
- Type: biochemical
assayMetric: IC50 (µM)

(P) Cc1ncc(-c2ccnc(Nc3ccc(C(=O)Nc4ccccc4N)cc3)n2)n1C(C)C [Example 1]
(Q) Cc1ncc(-c2ccnc(Nc3ccc(C(=O)Nc4ccccc4N)s3)n2)n1C(C)C [Example 11]
(R) Cc1ncc(-c2ccnc(Nc3ncc(C(=O)Nc4cc(-c5cccs5)ccc4N)s3)n2)n1C(C)C [Example 16]
### Prompt Give the order of the entries above, sorted from least to greatest IC50. Please write the labels in the order that was asked for.
### Response Q, P, R
(Q: 0.012 µM, P: 0.03 µM, R: 2.15 µM)

(1) Cc1ncc(-c2ccnc(Nc3ccc(C(=O)Nc4cc(C(F)(F)F)ccc4N)cc3)n2)n1C(C)C [Example 6]
(2) Cc1ncc(-c2ncnc(Nc3ccc(C(=O)Nc4ccccc4N)cc3)n2)n1C(C)C [Example 12]
(3) Cc1ncc(-c2ccnc(Nc3ccc(C(=O)NO)s3)n2)n1C(C)C [Example 8]
### Prompt Order the records by IC50, with each subsequent value no larger than the one before. Please write the labels in the order that was asked for.
### Response 2, 1, 3

(P) Cc1ncc(-c2ccnc(Nc3ccc(C(=O)Nc4cc(-c5cccs5)ccc4N)s3)n2)n1C(C)C [Example 10]
(Q) Cc1ncc(-c2ccnc(Nc3ccc(C(=O)Nc4cc(-c5ccc(F)cc5)ccc4N)s3)n2)n1C(C)C [Example 13]
### Prompt Form field 'greater IC50' accepts P or Q ; which applies? # reply format: chosen label
### Response Q
(Q: 0.065 µM, P: 0.026 µM)

(I) Cc1ncc(-c2ccnc(Nc3ncc(C(=O)Nc4ccccc4N)s3)n2)n1C(C)C [Example 18]
(II) Cc1ncc(-c2ccnc(Nc3ccc(C(=O)Nc4cc(-c5ccc(F)cc5)ccc4N)cc3)n2)n1C(C)C [Example 9]
(III) Cc1ncc(-c2ccnc(Nc3ccc(C(=O)NO)cc3)n2)n1C(C)C [Example 2]
(IV) Cc1ncc(-c2ccnc(Nc3ncc(C(=O)Nc4cc(-c5ccc(F)cc5)ccc4N)s3)n2)n1C(C)C [Example 15]
### Prompt Order the records by IC50, with each subsequent value no larger than the one before. Please write the labels in the order that was asked for.
### Response I, IV, II, III
(I: 2.1 µM, IV: 1.04 µM, II: 0.027 µM, III: 0.01 µM)

---

- studySystem: HDAC 1 (Homo sapiens, UniProt Q13547)
- Sequence (Q13547 whole entry, species assumed): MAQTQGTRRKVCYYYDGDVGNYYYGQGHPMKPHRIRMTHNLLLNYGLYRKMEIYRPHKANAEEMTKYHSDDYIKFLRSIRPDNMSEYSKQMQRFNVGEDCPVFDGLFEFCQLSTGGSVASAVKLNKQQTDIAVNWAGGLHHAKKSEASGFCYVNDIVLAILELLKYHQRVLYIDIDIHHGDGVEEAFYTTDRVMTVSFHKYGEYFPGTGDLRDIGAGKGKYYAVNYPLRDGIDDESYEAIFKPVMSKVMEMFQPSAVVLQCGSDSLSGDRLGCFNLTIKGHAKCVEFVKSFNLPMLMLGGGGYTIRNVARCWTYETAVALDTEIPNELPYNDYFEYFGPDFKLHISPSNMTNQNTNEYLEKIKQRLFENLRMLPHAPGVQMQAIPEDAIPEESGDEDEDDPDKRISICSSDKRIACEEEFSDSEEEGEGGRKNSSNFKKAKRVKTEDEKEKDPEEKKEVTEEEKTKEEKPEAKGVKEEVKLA
- assayExplanation: HDAC 1 inhibition assay with about 3 hours preincubation of enzyme and compound
- Assay type: biochemical
- conditionDescription: read-out: HDAC 1 inhibitory activity (IC50 [μM]) (3-hour preincubation)
assayMetric: IC50 (µM)

These solved cases illustrate the format of a correct answer.
{"columns": ["recordSmiles", "IC50 [µM]"],
 "data": [
  ["Cc1ncc(-c2ccnc(Nc3ncc(C(=O)Nc4ccccc4N)s3)n2)n1C(C)C", 0.41],
  ["Cc1ncc(-c2nc(Nc3ccc(C(=O)Nc4cc(-c5cccs5)ccc4N)s3)ncc2F)n1C(C)C", 0.037]
]}

(I) Cc1ncc(-c2ncnc(Nc3ccc(C(=O)Nc4ccccc4N)cc3)n2)n1C(C)C
(II) Cc1ncc(-c2ccnc(Nc3ccc(C(=O)Nc4cc(F)ccc4N)cc3)n2)n1C(C)C
(III) Cc1ncc(-c2cnnc(Nc3ccc(C(=O)Nc4cc(-c5cccs5)ccc4N)cc3)n2)n1C(C)C
### Prompt // smallest IC50 at index 0, largest at the end Please write the labels in the order that was asked for.
### Response III, I, II

(A) Cc1cc(C(=O)Nc2cc(-c3ccc(F)cc3)ccc2N)sc1Nc1nccc(-c2cnc(C)n2C(C)C)n1
(B) Cc1ncc(-c2ccnc(Nc3ncc(C(=O)Nc4cc(-c5ccc(F)cc5)ccc4N)s3)n2)n1C(C)C
(C) Cc1ncc(-c2ccnc(Nc3ccc(C(=O)NO)cc3)n2)n1C(C)C
### Prompt Order the records by IC50, with each subsequent value no larger than the one before. Please write the labels in the order that was asked for.
### Response C, B, A
